test: yeast display, Sf9 membrane polyspecificity reagent, FACS + sequencing; frameworks hold sequencing errors
measurement_type: polyreactivity (PSR sort gate)

{"construct_sequence": "QVQLVESGGALVQAGGSLRLSCAASGSIFSEYAMGWYRQAPGKERELVAAISRSGGTTYYADSVKGRFTISRDNAKNTVYLQMNSLKPEDTAVYYCAARYFRGSYPMGYWGQGTQVTVSS", "reported_measurement": "high polyreactivity"}
{"construct_sequence": "QVQLVESGGGLVQAGGSLRLSCAASRRIIGAYAMGWDRQAPGKEWELVARISWSGGTTYYADSVKGRFPISRDNAKNTVYLQMNSLKPEDTAVYYCAARYSYYVTGGISKYDYWGQGTQVTVSS", "reported_measurement": "low polyreactivity"}
{"construct_sequence": "QVQLVESGGGLVQAGGSLRISCAASGFIFPYNSMGWYREAPGKERELVARISSGGSTNYADSVKGRFTISRDNAKNTVYLQMHSLKPEDTAVYYCNARYRWGWTYLRYGSYDYWGQGTQVTVSS", "reported_measurement": "high polyreactivity"}
{"construct_sequence": "QVQLVESGGGLVQAGGSLRLSWAASGSTFPYYAMGWYRQAPGKERELVAAISWSDANTYYADSVKGRFTISRDNAKNTVYLQMNSLKPEDTAVYYCAAEPYDRYGPYTGYGLNYWGQGTQVTVSS", "reported_measurement": "low polyreactivity"}

We now examine a further sequence.
What value of polyreactivity (PSR sort gate) has been reported for the following sequence? `QVQLVESGGGLVQAGGSLRLSCAASGTTFYHNVMGWYRQAPGKERELVASIDTGDSTNYADSVKGRFTISRDNAKNTVYLQMNSLKPEDTAVYYCNADSYPALNKRGYDYWGQGTQVTVSS`
low polyreactivity

* * *

test: yeast display, Sf9 membrane polyspecificity reagent, FACS + sequencing; frameworks hold sequencing errors
measurement_type: polyreactivity (PSR sort gate)

Example entries and their recorded answers appear below.
{"construct_sequence": "QVQLVESGGGLVQAGGSLRLSCAASGFTFRKYAMGWYRQAPGKERELVAANTSGGGSTYYADSVKGRFTISRDNAKNTVYLQMNSLKPEDTAVYYCAAKRSGGQGQGYGYWGQGTQVTVSS", "measurement_type": "polyreactivity (PSR sort gate)", "reported_measurement": "high polyreactivity"}
{"construct_sequence": "QVQLVESGGGLVQAGGSLRLICAASGRIFYSYAMGWYRQAPGKERELVAAITVSGGSTFYADSVKGRFTISRDNAKNTVYLQMNSLKPEDTAVYYCAATRFSQYDWGQGTQVTVSS", "measurement_type": "polyreactivity (PSR sort gate)", "reported_measurement": "high polyreactivity"}
{"construct_sequence": "QVQLEESGGGLVQAGGSLRLSGAASGRTSDGYAMGWYRQAPGKERELVAGITEGGGDTYYADSVKGRFTMSRDTAKNTVYLQMNSLKPEDPALYYCNAVEGSRLPYDYGGQGTQVTVSS", "measurement_type": "polyreactivity (PSR sort gate)", "reported_measurement": "low polyreactivity"}
{"construct_sequence": "QVQLVESGGGLVQAGGSLRLSCAASGFTFTYNAMGWYRQAPGKERELVAAITANGGGTNYADSVKGRFTISRDNAKNTVYLQMNSLKPEDTAVYYCAATIVVAVFESLVFYWYTEDNYWGQGTQVTVSS", "measurement_type": "polyreactivity (PSR sort gate)", "reported_measurement": "low polyreactivity"}

We now examine a further sequence.
What value of polyreactivity (PSR sort gate) has been reported for the following sequence? `QVQLVESGGGLVQAGGSLRLSCAASGITFEKYAMGGYRQAPGKERELVAAITSSGGSTYYADSVKGRFTISRDNAKNTVYLQMNSLKPEDTAVYYCKARYYYADRTSGGYYYWGQGTQVTVSS`
high polyreactivity

Reference source for all entries: the nanobody polyreactivity screen of Harvey et al. (2022)
